assay: Pharmacokinetics in mice after single oral dosing, blood and liver exposure by LC-MS; assay type: in vivo, mice (C57/bl6/J); details: male, C57/bl6/J, mouse, liver/blood, single oral dose 20 mg/kg, time point 4 h, read-out: liver/blood ratio

- compound: "COC(=O)CS(=O)(=O)c1cccc(-c2ccc(CN(Cc3ccc(C(F)(F)F)o3)C(C)c3cccc4ccccc34)cc2)c1 (stereo not drawn)"
  Kp at 4 h: 45
- compound: "Cc1ccc2ccccc2c1C(=O)N(Cc1ccc(-c2cccc(C(C)(C)C(=O)NO)c2)cc1)Cc1ccc(C(F)(F)F)o1"
  Kp at 4 h: 7.6
- compound: "CC(C)(C(=O)O)c1cccc(-c2ccc(CN(Cc3ccc(C(F)(F)F)o3)Cc3c(C#N)ccc4ccccc34)cc2)c1"
  Kp at 4 h: 2.7
- compound: "Cc1ccc2ccccc2c1CN(Cc1ccc(-c2cccc(S(=O)(=O)CC(=O)O)c2)cc1)Cc1ccc(C(F)(F)F)o1"
  Kp at 4 h: 86
- compound: "Cc1cc(C)c(CN(Cc2ccc(-c3cc(F)c(CO)c(S(=O)(=O)CC(=O)O)c3)cc2)Cc2ccc(C(F)(F)F)o2)c(C)c1"
  Kp at 4 h: 64
- compound: "Cc1ccc2ccccc2c1C(=O)N(Cc1ccc(-c2cccc(S(=O)(=O)CC(=O)O)c2)cc1)Cc1ccc(C(F)(F)F)o1"
  Kp at 4 h: 72
- compound: "Cc1ccc2ccccc2c1CN(Cc1ccc(-c2cccc(C(C)(C)C(=O)O)c2)cc1)Cc1ccc(C(F)(F)F)o1"
  Kp at 4 h: 11
- compound: "Cc1ccc2ccccc2c1C(=O)N(Cc1ccc(-c2cccc(C(C)(C)C(=O)O)c2)cc1)Cc1ccc(C(F)(F)F)o1"
  Kp at 4 h: 5.5
- compound: "Cc1ccc2ncccc2c1CN(Cc1ccc(-c2cccc(C(C)(C)C(=O)O)c2)cc1)Cc1ccc(C(F)(F)F)o1"
  Kp at 4 h: 9.7
- compound: "Cc1ccc(CN(Cc2ccc(-c3cccc(C(C)(C)C(=O)O)c3)cc2)Cc2ccc(C(F)(F)F)o2)c2ccccc12"
  Kp at 4 h: 8
- compound: "Cc1ccc2ccccc2c1C(=O)N(Cc1ccc(-c2cccc([C@@H](C)C(=O)O)c2)cc1)Cc1ccc(C(F)(F)F)o1"
  Kp at 4 h: 45
- compound: "COc1cc(-c2cccc(C(C)(C)C(=O)O)c2)ccc1CN(Cc1ccc(C(F)(F)F)o1)Cc1c(C)ccc2ccccc12"
  Kp at 4 h: 4.8
